Molecular target: T1, human PVRIG on cells (human, UniProt Q6DKI7 1-326)
T1 construct: whole, on cells; over-expressed on HEK cells or endogenous on Jurkat and CD8 T cells; also called hPVRIG; HEK hPVRIG cells
T1 sequence (looked up): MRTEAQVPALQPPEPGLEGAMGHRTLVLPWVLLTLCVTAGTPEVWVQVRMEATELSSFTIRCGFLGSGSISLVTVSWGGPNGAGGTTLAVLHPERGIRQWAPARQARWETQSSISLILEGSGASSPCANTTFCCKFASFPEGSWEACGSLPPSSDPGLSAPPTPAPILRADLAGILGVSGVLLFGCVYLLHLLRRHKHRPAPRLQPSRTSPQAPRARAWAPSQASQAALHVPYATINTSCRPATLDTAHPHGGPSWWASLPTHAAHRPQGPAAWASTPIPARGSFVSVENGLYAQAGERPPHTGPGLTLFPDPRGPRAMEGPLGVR
Test: FACS, Jurkat cells, relative to control, 3.3ug/ml
measured-attribute: gMFIr Jurkat
The reply should be a number, written without any unit.

Task item: Field request: gMFIr Jurkat | item: CHA.7.524 (antibody, V domains shown) VH: QVQLQQSGPEVVRPGVSVKISCKGSGYKFPDYVMHWVKQSHAKSLEWIGIISIYSGNTNYNQKFKGKATMTVDKSSSTAYMELARLTSEDSAIYYCAREGDLPMFAYWGQGTLVTVSA VL: QIVLTQSPAIMSASPGEKVTMTCNASSSVSYMYWYQQKPISSPRLLIYDTSNLASGVPVRFSGSGSGTSYSLTIGRMEAEDAATYYCQQWSSYPLTFGAGTKVEVK
Reply: 7.87
